Please respond with reported drug sensitivity score for every item in the list.
system: MDCK p60AmotL2-inducible + doxycycline (p60AmotL2 expressing); test: drug sensitivity score (DSS) from 5-dose viability curve (DSS (area-based score, 0 = no response)); higher = more sensitive (stronger viability inhibition); extreme values may be limits of the assay; details: doxycycline: 10 ng/mL; 72 h

Before answering, review these 5 worked examples.
>>> value("CCCCNc1ncc(C(=O)NCc2ccc(-n3ccnc3)cc2)c(NC2CCC(O)CC2)n1 (stereo not drawn) [UNC2881]")
1.9
>>> value("CCCCCCCCCCCCCCCCCCOP(=O)([O-])OC1CC[N+](C)(C)CC1 [Perifosine]")
0
>>> value("Cn1cnc2c(F)c(Nc3ccc(Br)cc3Cl)c(C(=O)NOCCO)cc21 [Selumetinib]")
10.1
>>> value("CCCCCCCCCCCCCCCCOP(=O)([O-])OCC[N+](C)(C)C [Miltefosine]")
5.3
>>> value("O=C1CN2Cc3c(ccc(Cl)c3Cl)N=C2N1 [Anagrelide]")
0

Hi team, please reply with drug sensitivity score for each item in this list.
1. CCCCOc1nc(N)c2c(n1)N(Cc1cccc(CN3CCCC3)c1)CC(=O)N2 [Vesatolimod]
2. CNC(=O)c1ccccc1Nc1nc(Nc2ccc3c(c2OC)CCC[C@H](N2CCN(CCO)CC2)C3)ncc1Cl

**Result**
1: 0; 2: 8.8

**Query** What does the record list as drug sensitivity score for C[C@H]1CN(C2COC2)CCN1c1ccc(Nc2cc(-c3ccnc(N4CCn5c(cc6c5CC(C)(C)C6)C4=O)c3CO)cn(C)c2=O)nc1 [GDC-0853] ?
**Result** 0

* * *

tested on: MDCK p60AmotL2-inducible + doxycycline (p60AmotL2 expressing); assay: drug sensitivity score (DSS) from 5-dose viability curve (DSS (area-based score, 0 = no response)); higher = more sensitive (stronger viability inhibition); extreme values may be limits of the assay; conditions: doxycycline: 10 ng/mL; 72 h
Please go through the items and note down their drug sensitivity score.
One number for each entry.

>>> value("CO[C@H]1C[C@@H]2CC[C@@H](C)[C@@](O)(O2)C(=O)C(=O)N2CCCC[C@H]2C(=O)O[C@H]([C@H](C)C[C@@H]2CC[C@@H](O)[C@H](OC)C2)CC(=O)[C@H](C)/C=C(\\C)[C@@H](O)[C@@H](OC)C(=O)[C@H](C)C[C@H](C)/C=C/C=C/C=C/1C [Sirolimus]")
7.6
>>> value("COc1cc(Br)c(Nc2nc(-c3c(C)nc4ncccn34)cs2)c(Br)c1 [PTC-209]")
13.8
>>> value("Cn1cncc1[C@@](N)(c1ccc(Cl)cc1)c1ccc2c(c1)c(-c1cccc(Cl)c1)cc(=O)n2C [Tipifarnib]")
9.6

I would be grateful if you could provide drug sensitivity score for each of the following entries.
1. CCN(CC)CCOc1ccc(C(=C(Cl)c2ccccc2)c2ccccc2)cc1 [Clomifene]
2. COc1ccccc1S(=O)(=O)Nc1ccc2c(c1)CN(C)C(=O)N2 [PFI-1]
3. COc1cc2nccc(Oc3ccc(NC(=O)Nc4cc(C)on4)c(Cl)c3)c2cc1OC [Tivozanib]
4. Nc1cc(F)ccc1NC(=O)c1ccc(CNC(=O)/C=C/c2cccnc2)cc1 [Tucidinostat]

**Result**
1: 5.3; 2: 5.3; 3: 4.4; 4: 2.6

* * *

tested on: MDCK p60AmotL2-inducible + doxycycline (p60AmotL2 expressing); test: drug sensitivity score (DSS) from 5-dose viability curve (DSS (area-based score, 0 = no response)); higher = more sensitive (stronger viability inhibition); extreme values may be limits of the assay; conditions: doxycycline: 10 ng/mL; 72 h
MEASURED_QUANTITY: drug sensitivity score
Give bare numbers.

>>> value("NCCNc1ccc(NCCN)c2c1C(=O)c1ccncc1C2=O")
0

# return drug sensitivity score for each item in the list
1. C[C@H](Nc1ncnc2[nH]cnc12)c1cc2ccc(F)cc2nc1-c1ccccn1
2. Cc1ccc(=O)n(-c2ccccc2)c1
3. Cc1cc(C)c(CNC(=O)c2cc(-c3ccc(CN4CCOCC4)cc3)cc3c2cnn3C2CCCC2)c(=O)[nH]1
4. Clc1ccc(Nc2nnc(Cc3ccncc3)c3ccccc23)cc1
5. CNC(=O)c1ccc(C)c(-n2c(C)cc(OCc3ccc(F)cc3F)c(Br)c2=O)c1
6. Cc1cccc(CC(=O)N2CCc3c2ccc(-c2cn(C)c4ncnc(N)c24)c3F)n1
7. CC(C)N(C[C@H]1O[C@@H](n2cnc3c(N)ncnc32)[C@H](O)[C@@H]1O)[C@H]1C[C@@H](CCc2nc3cc(C(C)(C)C)ccc3[nH]2)C1

**Result**
0
0
0
0
0
0
0

Provide drug sensitivity score for all items below, preserving their order.
1. CC[C@H](NC(=O)[C@H](C)NC)C(=O)N1C[C@@H](O)C[C@H]1Cc1c(-c2[nH]c3cc(F)ccc3c2C[C@@H]2C[C@H](O)CN2C(=O)[C@H](CC)NC(=O)[C@H](C)NC)[nH]c2cc(F)ccc12
2. Cc1cn(-c2cc(NC(=O)c3ccc(C)c(Nc4nccc(-c5cnccn5)n4)c3)cc(C(F)(F)F)c2)cn1
3. CC1(C)CCC(c2ccc(Cl)cc2)=C(CN2CCN(c3ccc(C(=O)NS(=O)(=O)c4ccc(N[C@H](CCN5CCOCC5)CSc5ccccc5)c(S(=O)(=O)C(F)(F)F)c4)cc3)CC2)C1

**Result**
1: 0; 2: 0; 3: 0

Hello, I would appreciate it if you could give drug sensitivity score for each entry below.
1. Cc1c(N)nc([C@H](CC(N)=O)NC[C@H](N)C(N)=O)nc1C(=O)N[C@H](C(=O)N[C@H](C)[C@@H](O)[C@H](C)C(=O)N[C@H](C(=O)NCCc1nc(-c2nc(C(=O)NCCC[S+](C)C)cs2)cs1)[C@@H](C)O)[C@@H](OC1OC(CO)C(O)C(O)C1OC1OC(CO)C(O)C(OC(N)=O)C1O)c1cnc[nH]1 (some centres undefined)
2. CC[C@@](C)(Nc1ccnc(-c2c[nH]c3ncccc23)n1)C(=O)NCC(F)(F)F
3. O=C(O)c1ccc(CN2CCC(CN[C@@H]3C[C@H]3c3ccccc3)CC2)cc1
4. CC(=O)O[C@]1(C(C)=O)CC[C@H]2[C@@H]3C=C(C)C4=CC(=O)CC[C@]4(C)[C@H]3CC[C@@]21C [Megestrol acetate]
5. C[C@@H]1CN(Cc2ccc(F)cc2)[C@@H](C)CN1C(=O)c1cc2c(C(=O)C(=O)N(C)C)cn(C)c2cc1Cl
6. CC1(C)CC[C@]2(NC(=O)C(C)(F)F)CC[C@]3(C)[C@H](C(=O)C=C4[C@@]5(C)C=C(C#N)C(=O)C(C)(C)[C@@H]5CC[C@]43C)[C@@H]2C1
7. Cc1cnc(-c2ccccc2C(C)C)nc1NCc1ccc(-n2ccnn2)cc1
8. CCc1cc2c(cc1N1CCC(N3CCOCC3)CC1)C(C)(C)c1[nH]c3cc(C#N)ccc3c1C2=O

**Result**
0.6
0
0
0
0
16.7
1.4
0

I'm hoping you can list drug sensitivity score for every compound here, please.
1. O[C@H](C[C@H]1c2c(F)cccc2-c2cncn21)[C@H]1CC[C@H](O)CC1
2. O=c1[nH]cc(F)c(=O)[nH]1
3. Cn1ncc(Cl)c1-c1cc(C(=O)N[C@H](CN)Cc2ccc(F)c(F)c2)oc1Cl
4. COC(=O)c1ccc2c(c1)[nH]c1ncnc(NCCCN3CCCCC3)c12
5. CN(C)C(=O)c1ccc(S(=O)(=O)c2ccc(NC(=O)[C@@](C)(O)C(F)(F)F)c(Cl)c2)cc1
6. COc1cc(Nc2ncc(F)c(Nc3ccc4c(n3)N(COP(=O)(O)O)C(=O)C(C)(C)O4)n2)cc(OC)c1OC
7. CC/C(=C(\c1ccc(O)cc1)c1ccc(OCCN(C)C)cc1)c1ccccc1 [4-hydroxytamoxifen]
8. NS(=O)(=O)OC[C@@H]1C[C@@H](n2ccc3c(N[C@H]4CCc5ccccc54)ncnc32)C[C@@H]1O

**Result**
1: 0; 2: 9.2; 3: 0; 4: 3; 5: 0; 6: 4.6; 7: 5.7; 8: 11.7

Provide reported drug sensitivity score for each item, in the same order as listed.
1. CC[C@H](C)C(=O)O[C@H]1C[C@@H](C)C=C2C=C[C@H](C)[C@H](CC[C@@H]3C[C@@H](O)CC(=O)O3)[C@H]21
2. NC(=O)NO [Hydroxyurea]

**Result**
1. 0
2. 0
